Biological target: human Nav1.8 sodium channel (Homo sapiens)
Assay: Blocking activity on sodium channel 1.8 (Nav1.8), whole-cell manual patch clamp
Assay type: cell-based
Conditions: read-out: inhibition Percent @1 nM, 1 nM compound
measurementName: inhibition at 0.001 µM (%)
Report as a plain number; the unit % is understood.

Consider the worked cases shown below.
molecule="Cc1nc(N2CCCC(F)(F)CC2)c(C(=O)Nc2cccc(C(=N)N)c2)cc1Cl [Compound I-12]" unitdescriptor=% reportedmeasurement=73
molecule="Cc1nc(N2CCC(F)(F)C(C)C2)c(C(=O)Nc2ccc(F)c(C(N)=NO)c2)cc1Cl (single isomer, unassigned) [Compound I-41-P1]" unitdescriptor=% reportedmeasurement=38
molecule="CN(C)c1nc(N2CCCC(F)(F)CC2)c(C(=O)Nc2ccc(F)c(C(N)=NO)c2)cc1Cl [Compound I-43]" unitdescriptor=% reportedmeasurement=55
molecule="COc1ccc(NC(=O)c2cc(Cl)c(C)nc2N2CCCC(F)(F)CC2)cc1C(=N)N [Compound I-10]" unitdescriptor=% reportedmeasurement=32

GET /values?readout=inhibition at 0.001 µM&item= NC(=NO)c1cc(NC(=O)c2c(N3CCCC(F)(F)CC3)ccc(C(F)(F)F)c2Cl)ccc1F [Compound I-32]
50

Item: Cc1nc(N2CCCC(F)(F)CC2)c(C(=O)Nc2ccc(F)c(C(N)=NO)c2)cc1Cl [Compound I-1]
71

Item: Cc1nc(N2CCCC(F)(F)CC2)c(C(=O)Nc2cccc(C(N)=NO)c2)cc1Cl [Compound I-11]
90

----------
Assay: In vivo pharmacokinetics in rats, single intravenous injection or oral gavage
Details: male, SD, plasma; Rat, oral gavage, 10mg/kg
Entries and their Tmax
Report as a plain number; the unit h is understood.

molecule="Cc1cc(F)ccc1Oc1cc(C(F)(F)F)ccc1C(=O)Nc1cc[nH]c(=O)c1 [VX-150, reference compound]" measurementname=Tmax reportedmeasurement=2

// next entry
GET /values?readout=Tmax&item= Cc1nc(N2CCCC(F)(F)CC2)c(C(=O)Nc2ccc(F)c(C(N)=NO)c2)cc1Cl [Compound I-1]
0.5

----------
Assay: In vivo pharmacokinetics in rats, single intravenous injection or oral gavage
Conditions: male, SD, plasma; Rat, intravenous, single dose 2 mg/kg or 1 mg/kg (figure not given); read-out: Vss
Protocol: The in vivo pharmacokinetics in rats were evaluated via a single intravenous injection or oral gavage administration in this test example. • 1. […] Pharmacokinetic parameters in rat/mouse plasma were calculated for both administration routes, and the bioavailability of each compound in rats was also calculated. […]
// returns class 0 unless Vd is strictly below 1 L/kg, in which case class 1

compound="CC(C)c1nc(N2CCCC(F)(F)CC2)c(C(=O)Nc2ccc(F)c(C(N)=NO)c2)cc1Cl [Compound I-24]" cat="class 0"
compound="Cc1nc(N2CCCC(F)(F)CC2)c(C(=O)Nc2ccc(F)c(C(N)=NC#N)c2)cc1Cl [Compound I-3]" cat="class 1"
compound="NC(=NO)c1cc(NC(=O)c2cc(Cl)c(C(F)(F)F)nc2N2CCCC(F)(F)CC2)ccc1F [Compound I-36]" cat="class 1"

Threshold test, Vd < 1 L/kg: Cc1cc(F)ccc1Oc1cc(C(F)(F)F)ccc1C(=O)Nc1cc[nH]c(=O)c1 [VX-150, reference compound]
class 0

----------
Molecular target: human Nav1.8 sodium channel (Homo sapiens, UniProt Q9Y5Y9)
Sequence (Q9Y5Y9 whole entry): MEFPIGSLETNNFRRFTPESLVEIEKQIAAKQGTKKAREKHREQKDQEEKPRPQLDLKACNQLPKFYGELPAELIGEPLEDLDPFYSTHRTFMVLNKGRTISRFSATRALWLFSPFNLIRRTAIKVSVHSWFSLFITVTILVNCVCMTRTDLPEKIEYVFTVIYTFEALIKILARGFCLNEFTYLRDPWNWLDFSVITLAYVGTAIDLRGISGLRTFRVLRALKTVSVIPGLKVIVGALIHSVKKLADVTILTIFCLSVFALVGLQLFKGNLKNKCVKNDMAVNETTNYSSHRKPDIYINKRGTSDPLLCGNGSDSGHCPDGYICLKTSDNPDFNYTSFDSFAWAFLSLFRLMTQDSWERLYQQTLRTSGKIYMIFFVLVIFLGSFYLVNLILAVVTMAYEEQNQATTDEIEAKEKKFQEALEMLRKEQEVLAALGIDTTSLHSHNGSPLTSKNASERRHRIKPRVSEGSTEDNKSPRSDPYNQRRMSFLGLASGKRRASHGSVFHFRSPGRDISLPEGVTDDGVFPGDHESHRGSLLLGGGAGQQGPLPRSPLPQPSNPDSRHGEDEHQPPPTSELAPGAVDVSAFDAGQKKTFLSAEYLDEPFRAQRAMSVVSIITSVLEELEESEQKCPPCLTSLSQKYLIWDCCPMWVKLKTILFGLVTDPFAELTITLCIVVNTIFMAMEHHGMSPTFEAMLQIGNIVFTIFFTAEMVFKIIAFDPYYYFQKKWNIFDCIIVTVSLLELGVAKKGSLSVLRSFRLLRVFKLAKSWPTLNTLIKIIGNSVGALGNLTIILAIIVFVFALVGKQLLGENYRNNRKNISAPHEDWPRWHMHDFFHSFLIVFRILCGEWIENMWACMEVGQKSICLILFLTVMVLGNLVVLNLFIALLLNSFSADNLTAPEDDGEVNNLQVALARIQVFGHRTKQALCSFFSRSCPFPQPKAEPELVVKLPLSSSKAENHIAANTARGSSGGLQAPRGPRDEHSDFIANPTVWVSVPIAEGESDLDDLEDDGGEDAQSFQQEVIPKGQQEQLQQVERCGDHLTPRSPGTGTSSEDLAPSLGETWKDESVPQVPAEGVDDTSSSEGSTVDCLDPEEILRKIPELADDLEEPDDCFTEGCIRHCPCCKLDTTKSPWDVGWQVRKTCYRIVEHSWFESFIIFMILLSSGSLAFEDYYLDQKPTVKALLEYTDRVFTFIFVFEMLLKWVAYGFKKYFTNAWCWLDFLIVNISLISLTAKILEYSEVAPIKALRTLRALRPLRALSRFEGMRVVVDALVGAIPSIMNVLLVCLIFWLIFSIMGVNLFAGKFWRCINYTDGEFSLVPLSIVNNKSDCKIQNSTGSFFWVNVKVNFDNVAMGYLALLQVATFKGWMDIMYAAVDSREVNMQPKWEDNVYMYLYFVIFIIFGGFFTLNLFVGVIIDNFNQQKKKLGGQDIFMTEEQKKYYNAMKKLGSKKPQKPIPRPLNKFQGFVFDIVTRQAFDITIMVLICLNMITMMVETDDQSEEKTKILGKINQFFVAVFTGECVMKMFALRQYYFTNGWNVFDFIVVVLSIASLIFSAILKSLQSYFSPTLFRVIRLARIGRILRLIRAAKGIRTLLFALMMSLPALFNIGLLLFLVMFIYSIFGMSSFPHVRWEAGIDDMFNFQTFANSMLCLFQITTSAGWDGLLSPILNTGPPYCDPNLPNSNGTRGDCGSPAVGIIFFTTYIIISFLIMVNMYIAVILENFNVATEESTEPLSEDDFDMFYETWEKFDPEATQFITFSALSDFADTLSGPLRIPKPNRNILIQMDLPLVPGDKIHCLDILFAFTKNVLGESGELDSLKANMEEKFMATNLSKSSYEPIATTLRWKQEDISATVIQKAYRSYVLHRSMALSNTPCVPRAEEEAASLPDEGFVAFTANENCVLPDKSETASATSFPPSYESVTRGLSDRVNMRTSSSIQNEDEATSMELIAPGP
Assay: Blocking activity on sodium channel 1.8 (Nav1.8), whole-cell manual patch clamp
Format: cell-based
Settings: Nav1.8 channel current, HEK293 cells stably expressing human Nav1.8, clamped at -60 mV, mean ± SEM; read-out: IC50
measurementName: IC50 (nM)
Report as a plain number; the unit nM is understood.

GET /values?readout=IC50&item= Cc1nc(N2CCCC(F)(F)CC2)c(C(=O)Nc2cccc(C(=N)N)c2)cc1Cl
0.26

----------
Entries and their half-life
Assay: In vivo pharmacokinetics in rats, single intravenous injection or oral gavage
Details: male, SD, plasma; Rat, oral gavage, 5mg/kg
The reply should read as a number followed by its unit.

Consider the worked cases shown below.
compound="NC(=NO)c1cc(NC(=O)c2cc(Cl)c(C(F)(F)F)cc2N2CCCC(F)(F)CC2)ccc1F [Compound I-33]" reportedmeasurement="5.12 h"
compound="NC(=NO)c1cc(NC(=O)c2cc(Cl)c(C(F)(F)F)nc2N2CCCC(F)(F)CC2)ccc1F [Compound I-36]" reportedmeasurement="3.15 h"
compound="Cc1nc(N2CCCC(F)(F)CC2)c(C(=O)Nc2ccc(F)c(C(N)=NC#N)c2)cc1Cl [Compound I-3]" reportedmeasurement="2.08 h"

GET /values?readout=half-life&item= CC(C)c1nc(N2CCCC(F)(F)CC2)c(C(=O)Nc2ccc(F)c(C(N)=NO)c2)cc1Cl [Compound I-24]
2.73 h

Item: COc1c([C@H]2[C@H](C(=O)Nc3ccnc(C(N)=O)c3)O[C@@](C)(C(F)(F)F)[C@H]2C)ccc(F)c1F [VX-548, reference compound]
2.68 h

----------
Test: In vivo pharmacokinetics in rats, single intravenous injection or oral gavage
Settings: male, SD, plasma; Rat, oral gavage, 10mg/kg
measurementName: Cmax (ng/mL)
Report as a plain number; the unit ng/mL is understood.

compound="Cc1cc(F)ccc1Oc1cc(C(F)(F)F)ccc1C(=O)Nc1cc[nH]c(=O)c1 [VX-150, reference compound]" unitdescriptor=ng/mL reportedmeasurement=723

// next entry
GET /values?readout=Cmax&item= Cc1nc(N2CCCC(F)(F)CC2)c(C(=O)Nc2ccc(F)c(C(N)=NO)c2)cc1Cl
433

----------
Target: UniProtKB Q9Y5Y9
Experiment: Blocking activity on sodium channel 1.8 (Nav1.8), whole-cell manual patch clamp
Assay type: cell-based
Settings: read-out: inhibition Percent @1 nM, 1 nM compound
Entries and their inhibition at 0.001 µM
Report as a plain number; the unit % is understood.

compound=CCc1nc(N2CCCC(F)(F)CC2)c(C(=O)Nc2ccc(F)c(C(N)=NO)c2)cc1Cl studysystem="UniProtKB Q9Y5Y9" measurementname="inhibition at 0.001 µM" reportedmeasurement=94

Enter reported inhibition at 0.001 µM observed with UniProtKB Q9Y5Y9 for NC(=NO)c1cc(NC(=O)c2cc(Cl)c(CF)nc2N2CCCC(F)(F)CC2)ccc1F
32

Item: CC1CN(c2nc(C(F)(F)F)c(Cl)cc2C(=O)Nc2ccc(F)c(C(N)=NO)c2)CCC1(F)F (single isomer, unassigned) [Compound I-40-P1]
59

Item: O=C(Nc1ccc2c(c1)S(=O)(=O)NC2)c1c(N2CCCC(F)(F)CC2)ccc(C(F)(F)F)c1Cl
46

----------
Biological target: human Nav1.8 sodium channel (Homo sapiens)
Test: Blocking activity on sodium channel 1.8 (Nav1.8), whole-cell manual patch clamp
Format: cell-based
Conditions: read-out: inhibition Percent @1 nM, 1 nM compound
Label not met if inhibition at 0.001 µM falls below 60%; label met in every other case.

For orientation, consider the following solved cases.
smi=Cc1nc(N2CCCC(F)(F)CC2)c(C(=O)Nc2ccc(Cl)c(C(=N)N)c2)cc1Cl cat=met
smi=NC(=NO)c1cc(NC(=O)c2cc(Cl)c(C(F)F)nc2N2CCCC(F)(F)CC2)ccc1F cat="not met"
smi=CC(C)c1nc(N2CCCC(F)(F)CC2)c(C(=O)Nc2ccc(F)c(C(N)=NO)c2)cc1Cl cat="not met"
smi=Cc1ccc(NC(=O)c2cc(Cl)c(C)nc2N2CCCC(F)(F)CC2)cc1C(=N)N cat="not met"

Now turn to the next compound.
Given Cc1nc(N2CCCC(F)(F)CC2)c(C(=O)Nc2ccc(C(N)=NO)cc2)cc1Cl , state whether its inhibition at 0.001 µM is at least 60%.
met

----------
Assay: In vivo pharmacokinetics in rats, single intravenous injection or oral gavage
Settings: male, SD, plasma; Rat, intravenous, single dose 2 mg/kg or 1 mg/kg (figure not given)
Entries and their clearance
Report as a plain number; the unit mL/min/kg is understood.

Consider the worked cases shown below.
molecule=NC(=NO)c1cc(NC(=O)c2cc(Cl)c(C(F)(F)F)cc2N2CCCC(F)(F)CC2)ccc1F measurementname=clearance unitdescriptor=mL/min/kg reportedmeasurement=7.44
molecule="Cc1cc(F)ccc1Oc1cc(C(F)(F)F)ccc1C(=O)Nc1cc[nH]c(=O)c1 [VX-150, reference compound]" measurementname=clearance unitdescriptor=mL/min/kg reportedmeasurement=13.9
molecule="COc1c([C@H]2[C@H](C(=O)Nc3ccnc(C(N)=O)c3)O[C@@](C)(C(F)(F)F)[C@H]2C)ccc(F)c1F [VX-548, reference compound]" measurementname=clearance unitdescriptor=mL/min/kg reportedmeasurement=20.7
molecule=NC(=NO)c1cc(NC(=O)c2cc(Cl)c(C(F)(F)F)nc2N2CCCC(F)(F)CC2)ccc1F measurementname=clearance unitdescriptor=mL/min/kg reportedmeasurement=3.91
molecule=Cc1nc(N2CCCC(F)(F)CC2)c(C(=O)Nc2ccc(F)c(C(N)=NO)c2)cc1Cl measurementname=clearance unitdescriptor=mL/min/kg reportedmeasurement=29.6

GET /values?readout=clearance&item= CC(C)c1nc(N2CCCC(F)(F)CC2)c(C(=O)Nc2ccc(F)c(C(N)=NO)c2)cc1Cl
12.8

Item: Cc1nc(N2CCCC(F)(F)CC2)c(C(=O)Nc2ccc(F)c(C(N)=NC#N)c2)cc1Cl
29.7
